Values were extracted from PubChem BioAssay AID463173.

Test system: DeltatarO mutant
Procedure details: S. aureus survival, RN4220 and DeltatarO strains – OD600, teichoic acid synthesis inhibitors, primary screen (AID 463173)
Measurement setup: S. aureus RN4220 wild type/DeltatarO growth, OD600, 18 h, stronger effect = lower value, screened at 18.75 µg/mL (by protocol)
The whole screen tested about 52,000 compounds, of which about 4,300 (8.3%) were called active. Many of the other results were omitted from the sample, so actives are more common in it than they were.
Here the recorded survival is given for each entry.

Compound: CCC1=NN(C(=O)c2ccccc2O)C(O)(c2ccccc2)C1 (configuration not stated)
Target or system: DeltatarO mutant
Result unit: %
survival: 1
--
Compound: COc1ccc(-c2nc(CN3CCC(C(=O)NCCCN4CCN(c5ccccc5F)CC4)CC3)c(C)o2)cc1OC
Target or system: DeltatarO mutant
Result unit: %
survival: 70
--
Compound: CCn1c(SCc2ccccc2Cl)nc(=O)c2c(C(=O)OC)cc(C3CC3)nc21
Target or system: DeltatarO mutant
Result unit: %
survival: 77
--
Compound: COc1cccc(CNC(=O)CSc2n[nH]c(-c3ccccc3Cl)n2)c1
Target or system: DeltatarO mutant
Result unit: %
survival: 60
--
Compound: CC(CCc1ccccc1)NC(=O)CSc1n[nH]c(-c2ccccc2)n1 (configuration not stated)
Target or system: DeltatarO mutant
Result unit: %
survival: 94
--
Compound: Cc1ccc(CSc2ncc(Cl)c(C(=O)Nc3sc4c(c3C(N)=O)CCCC4)n2)cc1
Target or system: DeltatarO mutant
Result unit: %
survival: 105
--
Compound: O=C(CSc1nnc(CNC(=O)c2c(F)cccc2Cl)o1)Nc1cccc(F)c1
Target or system: DeltatarO mutant
Result unit: %
survival: 82
--
Compound: CCOC(=O)N1N=C(C)CC1(O)c1ccccc1 (configuration not stated)
Target or system: DeltatarO mutant
Result unit: %
survival: 90
--
Compound: Cc1ccc(CNC(=O)CSc2n[nH]c(-c3ccc(F)cc3)n2)cc1
Target or system: DeltatarO mutant
Result unit: %
survival: 122
--
Compound: COc1ccc(-c2nc(SCC(=O)NC(C)CCc3ccccc3)n[nH]2)cc1 (configuration not stated)
Target or system: DeltatarO mutant
Result unit: %
survival: 17
--
Compound: CCOc1ccc2oc(=O)cc(CN3CCN(c4ccc(Cl)cc4)CC3)c2c1
Target or system: DeltatarO mutant
Result unit: %
survival: 97
--
Compound: C=Cc1ccc(COc2ccc3oc(-c4ccccc4)c(C(=O)OCC)c3c2)cc1
Target or system: DeltatarO mutant
Result unit: %
survival: 45
--
Compound: CNCC(=O)NC(c1ccccc1)c1ccccc1
Target or system: DeltatarO mutant
Result unit: %
survival: 97
--
Compound: CCn1c(SCc2ccccc2C)nc(=O)c2c(C(=O)OC)cc(C3CC3)nc21
Target or system: DeltatarO mutant
Result unit: %
survival: 71
--
Compound: Cc1cc(=O)[nH]c2nnc(SCC(=O)NC(C)(C)C)n12
Target or system: DeltatarO mutant
Result unit: %
survival: 77
--
Compound: Cc1cc(C)cc(NC(=O)Cn2c(=O)n(C(C)C)c(=O)c3oc4ccccc4c32)c1
Target or system: DeltatarO mutant
Result unit: %
survival: 48
--
Compound: O=C(Cn1c(=O)n(Cc2ccco2)c(=O)c2oc3ccccc3c21)Nc1ccc(F)c(Cl)c1
Target or system: DeltatarO mutant
Result unit: %
survival: 44
--
Compound: CCOc1ccc(NC(=O)c2c(NC(=O)c3ccccc3F)sc3c2CCC3)cc1
Target or system: DeltatarO mutant
Result unit: %
survival: 155
--
Compound: O=C(Cn1c(=O)n(Cc2ccco2)c(=O)c2oc3ccccc3c21)Nc1ccccc1
Target or system: DeltatarO mutant
Result unit: %
survival: 67
--
Compound: O=C(COc1ccc(F)cc1)Nc1ccc2nc(SCC(=O)N3CCCC3)sc2c1
Target or system: DeltatarO mutant
Result unit: %
survival: 91
--
Compound: CCn1cc(C(=O)NCc2ccc(F)cc2)c(=O)c2cc(S(=O)(=O)N(C)C)ccc21
Target or system: DeltatarO mutant
Result unit: %
survival: 81
--
Compound: Cc1ccc(C(=O)COC(=O)CCCC(=O)Nc2cc(C(F)(F)F)ccc2Cl)cc1C
Target or system: DeltatarO mutant
Result unit: %
survival: 54
--
Compound: O=C(Cc1ccccc1)N(Cc1cccnc1)c1nc2ccc(Cl)cc2s1
Target or system: DeltatarO mutant
Result unit: %
survival: 72
--
Compound: CCCOc1cccc(C(=O)N(Cc2sccc2C)C2CCS(=O)(=O)C2)c1 (configuration not stated)
Target or system: DeltatarO mutant
Result unit: %
survival: 110
--
Compound: COc1ccccc1/C=C/c1nc(C#N)c(N2CCN(C)CC2)o1
Target or system: DeltatarO mutant
Result unit: %
survival: 92
--
Compound: O=C(/C=C/c1ccccc1)Nc1ccc2c(c1)OCCO2
Target or system: DeltatarO mutant
Result unit: %
survival: 76
--
Compound: CCOC(=O)Nc1ccc2c(c1)OCO2
Target or system: DeltatarO mutant
Result unit: %
survival: 79
--
Compound: COC(=O)c1c(NC(=O)c2nc(SCc3ccc(F)cc3)ncc2Cl)sc2c1CCCC2
Target or system: DeltatarO mutant
Result unit: %
survival: 47
--
Compound: COC(=O)c1c(NC(=O)c2nc(SC)ncc2Cl)sc2c1CCCC2
Target or system: DeltatarO mutant
Result unit: %
survival: 85
--
Compound: CCOC(=O)c1c(NC(=O)c2nc(SCC)ncc2Cl)sc2c1CCCC2
Target or system: DeltatarO mutant
Result unit: %
survival: 91
--
Compound: COc1cc(NC(=O)Cn2c(=O)n(C(C)C)c(=O)c3oc4ccccc4c32)cc(OC)c1
Target or system: DeltatarO mutant
Result unit: %
survival: 47
--
Compound: CCSc1ncc(Cl)c(C(=O)Nc2sc3c(c2C(=O)NC)CCCC3)n1
Target or system: DeltatarO mutant
Result unit: %
survival: 82
